Assay: Determination of solubility (USP XXIII article Solubility)
Format: physicochemical
Details: 20 °C, thermodynamic from solid, temperature of solvent 20 °C
Procedure: The solubility was determined in accordance with the requirements set out in the article “Solubility”, USPXXTIII (1995, p. 2071).
endpoint label: solubility (µg/mL)
Write the answer as a number in µg/mL, unit excluded.

Task item: Request the reported solubility associated with O=c1[nH]c(=O)n(C2CCCO2)cc1F (stereo not shown) [pharmacopeial tegafur, 5-fluoro-1-(tetrahydro-2-furyl)uracil, reference compound]
Reply: 8000
